Attribution: ChEMBL document CHEMBL3627612

Assay: Cytotoxicity against mouse NIH/3T3 cells at 5uM after 72 hrs by cyquant cells
Format: cell-based
Conditions: nih3t3, 72 h
measureName: Activity

smilesCode: C/C=C(\C)C(=O)O[C@H]1C[C@@H](C)[C@]2(OC)CC[C@](C)(/C=C3/OC(=O)C(COC(=O)/C=C/c4ccccc4)=C31)O2
assayResult: Toxic

smilesCode: C=C(C)C(=O)O[C@H]1C[C@@H](C)[C@]2(O)CC[C@](C)(/C=C3/OC(=O)C(COC(C)=O)=C31)O2
assayResult: Toxic

smilesCode: CCCC(CCC)C(=O)OCC1=C2/C(=C\[C@@]3(C)CC[C@](O)(O3)[C@H](C)C[C@@H]2O)OC1=O
assayResult: Toxic

----------
Molecular target: Signal transducer and activator of transcription 1 (Mus musculus) (UniProt P42225)
Sequence (whole entry): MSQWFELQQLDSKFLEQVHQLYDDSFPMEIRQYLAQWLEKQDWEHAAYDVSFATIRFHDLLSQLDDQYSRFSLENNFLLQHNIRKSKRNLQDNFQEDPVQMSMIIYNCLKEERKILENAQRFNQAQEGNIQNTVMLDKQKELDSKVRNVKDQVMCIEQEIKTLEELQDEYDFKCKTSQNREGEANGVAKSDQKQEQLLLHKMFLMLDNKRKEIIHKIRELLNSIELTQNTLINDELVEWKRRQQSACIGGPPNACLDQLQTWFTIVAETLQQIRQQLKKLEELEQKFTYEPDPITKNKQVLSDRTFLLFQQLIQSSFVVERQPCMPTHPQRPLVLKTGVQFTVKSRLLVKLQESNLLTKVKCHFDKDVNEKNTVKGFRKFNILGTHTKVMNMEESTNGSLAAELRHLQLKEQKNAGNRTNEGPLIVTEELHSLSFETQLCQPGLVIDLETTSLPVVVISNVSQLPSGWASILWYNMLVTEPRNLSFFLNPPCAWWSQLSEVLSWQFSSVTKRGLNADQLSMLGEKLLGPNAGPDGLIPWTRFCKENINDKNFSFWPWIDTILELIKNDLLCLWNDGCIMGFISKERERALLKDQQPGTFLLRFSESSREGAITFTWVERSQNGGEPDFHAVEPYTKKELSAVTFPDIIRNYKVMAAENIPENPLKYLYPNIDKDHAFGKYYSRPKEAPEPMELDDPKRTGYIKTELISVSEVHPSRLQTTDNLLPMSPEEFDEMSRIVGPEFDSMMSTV
Assay: Inhibition of Stat1 dimer DNA binding activity in EGF-stimulated mouse NIH3T3 nuclear extract expressing human EGFR at 5 uM preincubated for 30 mins followed by addition of radiolabeled probe hSIE for 30 mins by EMSA
Activity calls are given as the source filed them. No cut-off for these calls is given here.

smilesCode: C/C=C(\C)C(=O)O[C@H]1C[C@@H](C)[C@]2(O)CC[C@](C)(/C=C3/OC(=O)C(CO)=C31)O2
inhibition: inactive
//
smilesCode: C/C=C(/C)C(=O)O[C@H]1C[C@@H](C)[C@]2(O)CC[C@](C)(/C=C3/OC(=O)C(COC(C)=O)=C31)O2
inhibition: inactive
//
smilesCode: C=C(C)C(=O)O[C@H]1C[C@@H](C)[C@]2(O)CC[C@](C)(/C=C3/OC(=O)C(COC(C)=O)=C31)O2
inhibition: inactive
//
smilesCode: C/C=C(\C)C(=O)O[C@H]1C[C@@H](C)[C@]2(OC)CC[C@](C)(/C=C3/OC(=O)C(COC(C)=O)=C31)O2
inhibition: inactive
